Recorded values, source ChEMBL document CHEMBL1201862.

# Test system: Hs-578T
# assay_procedure: NCI tumour cell line growth inhibition, 48 h
Calls of active or inactive are those of the source. Cut-off read from the data, not from the text of the source: active = GI50 up to about 1.1 µM and inactive = higher. Positions of bridges follow the written chain, without caps; N, C: chain ends. Non-standard residues stand in square brackets, D forms with d. Residues, ends and D or L forms follow the SMILES beside them. *: point of attachment. Cbz = O=C(OCc1ccccc1)*; Aib = CC(C)(N)C(=O)O; OBn = c1ccc(CO*)cc1; βAla = NCCC(=O)O
recorded_endpoint: GI50

>  <molecule>
CCOC(=O)c1cn2c(n1)sc1cccc(C)c12

>  <GI50>
21.7 µM (inactive)

$$$$
>  <molecule>
CN(N)/N=N/c1[nH]cnc1[N+](=O)[O-]

>  <GI50>
> 100 µM (inactive)

$$$$
>  <molecule>
CC[C@]1(c2ccc3c(c2)OCO3)C=[N+]([O-])O[C@H](OC2CCCC2(c2ccccc2)c2ccccc2)[C@@H]1OC(C)=O (stereo partly drawn)

>  <GI50>
3.16 µM (inactive)

$$$$
>  <molecule>
Cc1cccc2c(N)c3cccc(C(=O)NCC[N+](C)(C)Cc4ccc([N+](=O)[O-])n4C)c3nc12

>  <GI50>
7.26 µM (inactive)

$$$$
>  <molecule>
CCOC(=O)C(CCc1ncnc2c1ncn2Cc1ccccc1)(CCc1ncnc2c1ncn2Cc1ccccc1)C(=O)OCC

>  <GI50>
83.2 µM (inactive)

$$$$
>  <molecule>
O=C1Nc2ccccc2/C1=N/N1C(=O)/C(=C/c2ccccc2S)N=C1c1ccccc1

>  <GI50>
> 100 µM (inactive)

$$$$
>  <molecule>
CC(=O)O[C@H]1[C@@H](OC(C)=O)C(C)(C)/C=C/[C@H](C)C(=O)[C@@]2(OC(C)=O)C[C@@](C)(OC(C)=O)[C@H](OC(C)=O)[C@@H]2[C@H]2OC(=O)CC[C@@]2(OC(=O)c2ccccc2)[C@@H]1OCC(C)C

>  <GI50>
11.2 µM (inactive)

$$$$
>  <molecule>
CC1(C)NC(=O)C(NC(=O)C(CC(=O)OCc2ccccc2)NC(=O)OCc2ccccc2)CCCCNC(=O)CCNC1=O (stereo not drawn) (Cbz-D(OBn)K[Aib][βAla]; lactam 2-C; configuration not given here)

>  <GI50>
> 100 µM (inactive)

$$$$
>  <molecule>
Nc1nc(SCC(=O)c2ccc(Br)cc2)c2nc[nH]c2n1

>  <GI50>
21.6 µM (inactive)

$$$$
>  <molecule>
CSC(=N/N=C(\C)c1ccc(S(=O)(=O)N(C)c2ccccc2)cc1)SC

>  <GI50>
> 59.4 µM (inactive)

$$$$

Request: What measured GI50 goes with CN(C)/N=C/c1cn(C)c(=O)n(C)c1=O ?
Result: > 100 µM (inactive)

Request: What do we get for CC(C)(CCCCC(C)(C)NC1=NCCO1)NC1=NCCO1 ?
Result: > 10 µM (inactive)

Request: What do we get for O=c1sc2c(s1)-c1sc(=O)sc1SS2 ?
Result: 81.7 µM (inactive)

Request: What do we get for CC(=O)O[C@@H](c1nccn1Cc1ccccc1)[C@H]1OC(C)(C)O[C@@H]1[C@H]1COC(C)(C)O1 ?
Result: > 100 µM (inactive)

Request: What do we get for COC(=O)C1C/C(=C/N(C)C)C(=S)N1 (stereo not drawn) ?
Result: > 100 µM (inactive)

Request: What do we get for Cc1cc2c(c(/C=N/c3ccc([N+](=O)[O-])cc3)c1)OC1(C=C2)Oc2ccccc2C(=O)N1C (stereo not drawn) ?
Result: 27.2 µM (inactive)

Request: What do we get for CC(C)(C)OC(=O)N(O)[C@@H]1CC[C@H](n2cnc3c(N)ncnc32)C1 ?
Result: > 100 µM (inactive)

Request: What do we get for CC(C)(C)c1ccc2c(c1)C(=O)c1ccccc1C2=O ?
Result: 90.2 µM (inactive)
